From: paper PMC12416549

Target: T1, TNFR1 (Homo sapiens, UniProt P19438)
T1 chain: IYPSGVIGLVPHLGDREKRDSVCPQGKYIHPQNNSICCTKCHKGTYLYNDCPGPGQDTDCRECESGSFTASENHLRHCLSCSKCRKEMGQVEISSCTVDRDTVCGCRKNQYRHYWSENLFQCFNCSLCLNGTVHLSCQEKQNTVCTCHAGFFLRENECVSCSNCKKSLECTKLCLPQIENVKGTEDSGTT
Experiment: yeast display SC50
MEASUREMENT_LABEL: apparent Kd (screen) (nM)
Expressed in nM, but write only the number.

Consider the reported apparent Kd (screen) for these binders:
A17K (designed binder) MTLQELLREEALRRAEKEAFRYALELLAEKFPEQKEYLLDLAEEIESQIRSLSGVDVEDVRKFLDKEWAWVKELLAEHPAELAEVEAARAARLAELRAEVEAKVAA = 1.16
E58Q (designed binder) MTLQELLREEALRRAEAEAFRYALELLAEKFPEQKEYLLDLAEEIESQIRSLSGVDVQDVRKFLDKEWAWVKELLAEHPAELAEVEAARAARLAELRAEVEAKVAA = 0.653
W68T (designed binder) MTLQELLREEALRRAEAEAFRYALELLAEKFPEQKEYLLDLAEEIESQIRSLSGVDVEDVRKFLDKETAWVKELLAEHPAELAEVEAARAARLAELRAEVEAKVAA = 1.54
A80V (designed binder) MTLQELLREEALRRAEAEAFRYALELLAEKFPEQKEYLLDLAEEIESQIRSLSGVDVEDVRKFLDKEWAWVKELLAEHPVELAEVEAARAARLAELRAEVEAKVAA = 0.869
L52N (designed binder) MTLQELLREEALRRAEAEAFRYALELLAEKFPEQKEYLLDLAEEIESQIRSNSGVDVEDVRKFLDKEWAWVKELLAEHPAELAEVEAARAARLAELRAEVEAKVAA = 2.73
E10G (designed binder) MTLQELLREGALRRAEAEAFRYALELLAEKFPEQKEYLLDLAEEIESQIRSLSGVDVEDVRKFLDKEWAWVKELLAEHPAELAEVEAARAARLAELRAEVEAKVAA = 1.4
A87D (designed binder) MTLQELLREEALRRAEAEAFRYALELLAEKFPEQKEYLLDLAEEIESQIRSLSGVDVEDVRKFLDKEWAWVKELLAEHPAELAEVEDARAARLAELRAEVEAKVAA = 0.49
L96S (designed binder) MTLQELLREEALRRAEAEAFRYALELLAEKFPEQKEYLLDLAEEIESQIRSLSGVDVEDVRKFLDKEWAWVKELLAEHPAELAEVEAARAARLAESRAEVEAKVAA = 0.539
E43Y (designed binder) MTLQELLREEALRRAEAEAFRYALELLAEKFPEQKEYLLDLAYEIESQIRSLSGVDVEDVRKFLDKEWAWVKELLAEHPAELAEVEAARAARLAELRAEVEAKVAA = 0.142
A15P (designed binder) MTLQELLREEALRRPEAEAFRYALELLAEKFPEQKEYLLDLAEEIESQIRSLSGVDVEDVRKFLDKEWAWVKELLAEHPAELAEVEAARAARLAELRAEVEAKVAA = 2.73

Asked: Complete the entry with apparent Kd (screen) for A69M (designed binder) MTLQELLREEALRRAEAEAFRYALELLAEKFPEQKEYLLDLAEEIESQIRSLSGVDVEDVRKFLDKEWMWVKELLAEHPAELAEVEAARAARLAELRAEVEAKVAA
Given back: 0.79

Asked: Complete the entry with apparent Kd (screen) for A105K (designed binder) MTLQELLREEALRRAEAEAFRYALELLAEKFPEQKEYLLDLAEEIESQIRSLSGVDVEDVRKFLDKEWAWVKELLAEHPAELAEVEAARAARLAELRAEVEAKVKA
Given back: 0.869

Asked: Complete the entry with apparent Kd (screen) for S47H (designed binder) MTLQELLREEALRRAEAEAFRYALELLAEKFPEQKEYLLDLAEEIEHQIRSLSGVDVEDVRKFLDKEWAWVKELLAEHPAELAEVEAARAARLAELRAEVEAKVAA
Given back: 0.539

Asked: Complete the entry with apparent Kd (screen) for L39M (designed binder) MTLQELLREEALRRAEAEAFRYALELLAEKFPEQKEYLMDLAEEIESQIRSLSGVDVEDVRKFLDKEWAWVKELLAEHPAELAEVEAARAARLAELRAEVEAKVAA
Given back: 1.4

Asked: Complete the entry with apparent Kd (screen) for W68V (designed binder) MTLQELLREEALRRAEAEAFRYALELLAEKFPEQKEYLLDLAEEIESQIRSLSGVDVEDVRKFLDKEVAWVKELLAEHPAELAEVEAARAARLAELRAEVEAKVAA
Given back: 4.39

Asked: Complete the entry with apparent Kd (screen) for D59P (designed binder) MTLQELLREEALRRAEAEAFRYALELLAEKFPEQKEYLLDLAEEIESQIRSLSGVDVEPVRKFLDKEWAWVKELLAEHPAELAEVEAARAARLAELRAEVEAKVAA
Given back: 0.252
